Test system: HepG2 cells
Assay: Cytotoxicity in HepG2 cells (intracellular ATP, ATPlite, 48 h)
Assay type: cell-based, human
Conditions: HepG2 cells; IC50 per ratio column head; unit inferred
measurement_name: IC50

Recorded results for 6 compounds are shown here.
compound	IC50
CCc1c(CCNCCCCCCNCCc2ccc([N+](=O)[O-])cc2)ccc(OC)c1OC	6.67 µM
CCN(CC)CCOc1ccc(C(O)(C#CC(O)(c2ccc(C)cc2)c2ccc(OCCN(CC)CC)cc2)c2ccc(C)cc2)cc1 (stereo not shown)	1.62 µM
COc1cc2ccccc2c(OC)c1CNCCCCCCNCc1c(OC)cc2ccccc2c1OC	4.25 µM
C[C@H](Cc1ccc(OCCCCCOc2ccc(C[C@@H](C)NC[C@H](O)c3cccc(Cl)c3)cc2)cc1)NC[C@H](O)c1cccc(Cl)c1	1.79 µM
CCN(CC)CCOc1ccc(C(O)(C#CC(O)(c2ccc(OCCN(CC)CC)cc2)c2ccc([N+](=O)[O-])cc2)c2ccc([N+](=O)[O-])cc2)cc1 (stereo not shown)	6.2 µM
CCOCn1c(-c2ccccc2)cc2c3c(N)nc(N)nc3ccc21	5.65 µM

Next:
Challenge: Which IC50 value is on record for COc1ccc2nc(-c3cccc(C)n3)nc(Nc3ccncc3)c2c1 ?
Response given: > 25 µM

----------
Assay: Cytotoxicity in HepG2 cells (intracellular ATP, ATPlite, 48 h)
Format: cell-based, human
Conditions: human, HepG2 cells, HepG2, 48 h exposure, intracellular ATP; read-out: IC50 (μM) Cytotoxicity HepG2
Lab note: anything with IC50 at 48 h below 20 µM is marked label 1; values at 20 µM or higher are marked label 0.

Consider the worked cases shown below.
compound	assigned_label
COc1ccc2nc3cc(Cl)ccc3c(NCCN3CCN(C)CC3)c2c1 [TCMDC-137476]	label 1
O=C(c1ccc([N+](=O)[O-])o1)N1CCC(Cc2ccc(C(F)(F)F)cc2)CC1 [TCMDC-124805]	label 1
O=c1c(Br)ccccc1Br [TCMDC-142246]	label 1
Fc1ccc2[nH]c(-c3cccc(-c4ccc(CNCCN5CCNCC5)cc4)c3)nc2c1 [TCMDC-132863]	label 0
COc1cccc(NC(=O)[C@H](C(C)C)n2c(=O)[nH]c3ccccc3c2=O)c1 [TCMDC-125133]	label 0
CC[C@H]1CN2CCc3cc(OC)c(OC)cc3[C@@H]2C[C@@H]1C[C@H]1NCCc2cc(OC)c(OC)cc21 [TCMDC-125531]	label 0

Next, consider the following compound.
Challenge: Answer whether the compound Cc1n[nH]c2ccc(-c3ccc4nccc(N5CCC(N)CC5)c4c3)cc12 [TCMDC-134315] has IC50 at 48 h strictly less than 20 µM
Response given: label 1

----------
System: luciferase reaction (BacTiter-Glo)
Experiment: Interference assay (inhibition of the BacTiter-Glo luciferase reaction)
Format: biochemical
Set-up: concentration or dose not given beside the values
Conditions: ATP interference assay
measurement_name: % Control luminiscence (%)
Answers are plain numbers, in %.

Recorded results for 5 compounds are shown here.
compound	target_desc	result_unit	% Control luminiscence
CCCCN1CCN(CCCCNc2c3ccccc3nc3ccccc23)CC1	luciferase reaction (BacTiter-Glo)	%	100
COc1ccc(CNCCCCCCNCc2ccc(OC)c3ccccc23)c2ccccc12	luciferase reaction (BacTiter-Glo)	%	91
Clc1ccc(Nc2nc(-c3ccccn3)cs2)nc1	luciferase reaction (BacTiter-Glo)	%	100
CN(C)S(=O)(=O)c1cc(-c2ccc3nccc(-c4cccc(S(N)(=O)=O)c4)c3c2)cnc1N	luciferase reaction (BacTiter-Glo)	%	100
O=C(Nc1ccc(N2CCNCC2)cc1)c1ccn2ncc(-c3cccc(Cl)c3)c2n1	luciferase reaction (BacTiter-Glo)	%	95

I'm hoping you can list % Control luminiscence for every compound here, please.
1. CC[C@H]1CN2CCc3cc(OC)c(OC)cc3[C@@H]2C[C@@H]1C[C@H]1NCCc2cc(OC)c(OC)cc21
2. N=c1n(CCN2CCCCC2)c2ccccc2n1CC(O)c1ccc(Cl)c(Cl)c1 (stereo not drawn)
3. CCOc1ccc(-c2nonc2NC(=O)c2cccc(Cl)c2)cc1OCC
4. Fc1ccc2[nH]c(-c3ccc(-c4ccc(CNCCN5CCNCC5)cc4)s3)nc2c1
5. Cc1cc(Nc2ccncc2)n2nc(C)c(-c3ccccc3Cl)c2n1

Response given:
1: 95; 2: 100; 3: 100; 4: 100; 5: 100

I'm hoping you can list % Control luminiscence for every compound here, please.
1. CCN(CC)CCCn1c(N)c(-c2nc3ccccc3[nH]2)c2nc(C#N)c(C#N)nc21
2. CN1CCN(CCCN(Cc2cccc(-c3cccc(CNC4CCCC4)c3)c2)C(=O)CCC2CCCC2)CC1

Response given:
[100, 100]

----------
For each of the molecules below, state its pIC50.
Test system: HepG2 cells
Test: Cytotoxicity in HepG2 cells (intracellular ATP, ATPlite, 48 h)
Type: cell-based, human
Conditions: HepG2 cells; IC50 per ratio column head; unit inferred
Answers are plain numbers, as −log10 of the molar value.

Recorded results for 3 molecules are shown here.
molecule	measurement_name	readout_value
Cc1cccc2[nH]cc(C3CCN(CC4CCC(NC(=O)/C=C/c5ccc(Cl)c(Cl)c5)CC4)CC3)c12 (stereo not shown) [TCMDC-140137]	pIC50	5.53
CCCCCCCN1CC[C@@H](CCCc2ccnc3ccc(OCCC4CCNCC4)cc23)[C@@H](CC)C1 [TCMDC-139819]	pIC50	5.35
O=C(C1CC1c1ccccc1)N(Cc1ccc(-c2ccc(CNCCc3ccccc3)cc2)cc1)C1CCNCC1 (stereo not shown) [TCMDC-141443]	pIC50	5.17

Next:
Challenge: Give recorded pIC50 with HepG2 cells for the following molecule: COc1ccccc1-c1cccc(-c2cccc(NC(=O)c3ccc([N+](=O)[O-])o3)c2)n1 [TCMDC-124800]
Response given: 4.94

----------
For each of the compounds below, state its inhibition at 5 µM.
System: P. falciparum stage V gametocytes
Assay: microbe, parasite or virus in culture
Design: BacTiter-Glo ATP luminescence viability of purified stage V gametocytes in 384-well plates, per cent inhibition versus DMSO
Conditions: Plasmodium falciparum, 48 h, read-out: % Inhibition
Answers are plain numbers, in %.

compound	readout_value
Cc1ccc(O)cc1C[C@@H]1C(=O)CC[C@@]2(C)[C@H]1CC[C@]2(C)O	-40.3
Cc1cc(NN=CC=Cc2ccccc2)c2ccc(F)cc2n1	-23.9
Fc1ccc2nccc(NN=Cc3ccccc3Cl)c2c1	-2.19
Cc1[nH]cnc1CSCCN/C(=N\C#N)NCCCCCCCCN/C(=N/C#N)NCCSCc1nc[nH]c1C	48.1

I'm hoping you can list inhibition at 5 µM for every compound here, please.
1. COc1ccc2c(NN=Cc3ccccc3)ccnc2c1
2. Cc1ccccc1Nc1nc(NCCCO)c2ccccc2n1
3. CCN(CC)CC(O)c1cc(-c2ccc(C)cc2)nc2c(C)cc(C)cc12 (stereo not drawn)
4. CCCCCCc1cc(OC)c(OC)cc1C(C)Nc1ccnc2cc(Cl)ccc12 (stereo not drawn)
5. Nc1c2c(nc3ccc(C(=O)Nc4cc(I)c(O)c(I)c4)cc13)CCCC2

Response given:
[89.4, 41.9, -117, -55.2, -1.08]

----------
For each of the compounds below, state its IC50.
Test system: P. falciparum stage V gametocytes
Assay: Gametocytocidal ATP bioluminescence assay (single point 5 μM and 1 μM, dose-response)
Assay type: cell-based, Plasmodium falciparum
Settings: Plasmodium falciparum; P. falciparum gametocytes; average; read-out: IC50 Pf Gametocytes average, IC50 (µM) average
Numbers only, in µM.

Recorded results for 7 compounds are shown here.
N=C(N=C(NCCCCCCNC(=NC(=N)Nc1ccc(Cl)cc1)N1CCCCC1)N1CCCCC1)Nc1ccc(Cl)cc1 0.38
CCOc1ccc(-c2nonc2NC(=O)c2cccc(Cl)c2)cc1OCC 0.84
CC(C)CCNC(=O)c1cnc2c(O)cccc2c1Nc1cccc(NC(=O)c2ccc(F)cc2)c1.O=C(O)C(F)(F)F 1.27
NCc1ccc(CNCc2cccc(-c3ccc(-c4nc5cc(C(F)(F)F)ccc5[nH]4)cc3)c2)cc1 0.86
c1ccc2sc(Sc3ncnc4sccc34)nc2c1 0.5
COc1cc2nc(NCC3CCN(c4nc(N)c5cc(OC)c(OC)cc5n4)CC3)nc(N)c2cc1OC 1.42
CCCCN1CCN(CCCCNc2c3ccccc3nc3ccccc23)CC1 1.19

Next:
Challenge: Which IC50 value is on record for CCN(CC)C(=NC(=N)Nc1ccc(Cl)cc1)NCCCCCCCCNC(=NC(=N)Nc1ccc(Cl)cc1)N(CC)CC ?
Response given: 1.03

----------
Tested on: P. falciparum stage V gametocytes
Experiment: Gametocytocidal ATP bioluminescence assay (single point 5 μM and 1 μM, dose-response)
Format: cell-based, Plasmodium falciparum
Conditions: Plasmodium falciparum; P. falciparum gametocytes; average; read-out: IC50 Pf Gametocytes average, IC50 (µM) average
measurement_name: IC50 (µM)
Give bare numbers, in µM.

compound	result_unit	IC50
COc1ccc(CNCc2ccc(F)cc2)cc1-c1ccc(OC)c(S(=O)(=O)NCCN2CCCC2)c1	µM	0.72

I'm hoping you can list IC50 for every compound here, please.
1. COc1ccc(NC(=O)C2c3ccccc3C(=O)N(CC(C)C)C2c2cccs2)cc1OC (centres unmarked)
2. Clc1ccc(Nc2nc(-c3ccccn3)cs2)nc1
3. COc1cc(-c2cc(-c3ccc(S(C)(=O)=O)cc3)cnc2N)ccc1O
4. CC(C)CNCc1cccc(-c2cccc(CNCCCN3CCN(C)CC3)c2)c1

Response given:
[0.43, 0.67, 1.24, 1.56]
